- tested target: BubR1(1–204) (human, UniProt O60566 1-204)
- Sequence (O60566 1-204): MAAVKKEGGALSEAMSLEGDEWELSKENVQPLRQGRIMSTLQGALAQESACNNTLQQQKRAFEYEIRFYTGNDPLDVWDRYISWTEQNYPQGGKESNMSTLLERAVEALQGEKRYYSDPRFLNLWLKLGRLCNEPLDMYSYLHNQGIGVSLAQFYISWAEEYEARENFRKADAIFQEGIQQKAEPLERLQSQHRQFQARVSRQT
- method notes: fluorescence polarisation
Where no end group is shown, it is not given here.
measurement label: Kd (nM)
All answers are understood in nM, so give the number only.

Could you tell me which Kd is on file for ENKIDFNDFIKRLKTGK (peptide, UniProt Q8NG31-2 210-226, looked up, also: 5-FAM label, position not given here) [5-FAM–labeled synthetic peptide Knl1(210–226)] ?
450
